Would you mind telling me the reported log p (HCOOH) of each entry?
# Method: logP by HPLC on reversed-phase column (C 18), EEC Directive 79/831 Annex V.A8
# Assay type: physicochemical
# Condition Summary: HPLC reversed-phase C 18; 40° C.; 0.1% aqueous formic acid and acetonitrile, linear gradient 10% to 90% acetonitrile
# Protocol: Temperature: 40° C.; Mobile phases: 0.1% aqueous formic acid and acetonitrile; linear gradient from 10% acetonitrile to 90% acetonitrile. Calibration was carried out using unbranched alkan-2-ones (comprising 3 to 16 carbon atoms) with known logP values (determination of the logP values by the retention times using linear interpolation between two successive alkanones).
Please state the value as a number alone, without comment.

query: Entry under review: CCN(C)C=Nc1ccc(-c2ccc(C(C)(C)C)cc2)cc1F . Reported log p (HCOOH)?
result: 2.29

query: Entry under review: CCN(C)C=Nc1cc(C)c(-c2ccc(F)c(Cl)c2)cc1C . Reported log p (HCOOH)?
result: 2.02

query: Entry under review: CCN(C)C=Nc1ccc(-c2ccc(C(C)(C)C)cc2)cc1Cl . Reported log p (HCOOH)?
result: 2.44

query: Entry under review: CCN(C)C=Nc1cc(C)c(-c2ccc(OC(C)C)cc2)cc1C . Reported log p (HCOOH)?
result: 2.18

query: Entry under review: CCN(C)C=Nc1ccc(-c2ccc(Cl)cc2Cl)cc1C(F)(F)F . Reported log p (HCOOH)?
result: 2.39

query: Entry under review: CCN(C)C=Nc1cc(C)c(-c2cccc(Cl)c2)cc1C . Reported log p (HCOOH)?
result: 2.15

query: Entry under review: Cc1cc(-c2ccc(C(C)(C)C)cc2)ccc1N=C1CCCCN1 . Reported log p (HCOOH)?
result: 2.45

query: Entry under review: Cc1cc(-c2ccc(C(C)(C)C)cc2)c(C)cc1N=CN1CCOCC1 . Reported log p (HCOOH)?
result: 2.53

query: Entry under review: Cc1cc(-c2ccc(C(C)(C)C)cc2)c(C)cc1N=CN1CCCC1 . Reported log p (HCOOH)?
result: 2.79

query: Entry under review: Cc1ccc(-c2cc(C)c(N=CN3CCCCC3)cc2C)cc1Cl . Reported log p (HCOOH)?
result: 2.53

query: Entry under review: Cc1cc(-c2ccc(C(C)(C)C)c(F)c2)c(C)cc1N=CN(C)C(C)C . Reported log p (HCOOH)?
result: 2.74

query: Entry under review: CCN(C)C=Nc1cc(C)c(-c2ccc(C[Si](C)(C)C)cc2)cc1C . Reported log p (HCOOH)?
result: 3.18

query: Entry under review: CCN(C)C=Nc1ccc(-c2ccc(Oc3ccccc3)cc2)cc1C . Reported log p (HCOOH)?
result: 2.41

query: Entry under review: CCON=C(C)c1ccc(-c2cc(C)c(N=CN3CCCCC3)cc2C)cc1 . Reported log p (HCOOH)?
result: 2.22

query: Entry under review: CCN(C)C=Nc1cc(C)c(-c2ccc(C(C)(CC)OC)cc2)cc1C (stereo not shown) . Reported log p (HCOOH)?
result: 2.38

query: Entry under review: CCc1cc(-c2ccc(OC)c(OC)c2)ccc1N=CN(C)CC . Reported log p (HCOOH)?
result: 1.68

query: Entry under review: CCN(C)C=Nc1cc(C)c(-c2ccc(S(=O)(=O)C(F)(F)F)cc2)cc1C . Reported log p (HCOOH)?
result: 2.21

query: Entry under review: CCN(C)C=Nc1cc(C)c(-c2cccc([Si](C)(C)C)c2)cc1C . Reported log p (HCOOH)?
result: 3.00

query: Entry under review: CCN(C)C=Nc1ccc(-c2ccc(Cl)c(C)c2)cc1C . Reported log p (HCOOH)?
result: 2.14
